Item-by-item account of ELISA [abs. corr.]
Biological target: T1, CD27 protein (His-tagged, Sino Biological Inc. 10039-H08B1) (human, UniProt P26842 20-192)
T1 construct: bought; coated onto ELISA plates; also called human CD27; recombinant protein; not shown: His tag
T1 sequence (looked up): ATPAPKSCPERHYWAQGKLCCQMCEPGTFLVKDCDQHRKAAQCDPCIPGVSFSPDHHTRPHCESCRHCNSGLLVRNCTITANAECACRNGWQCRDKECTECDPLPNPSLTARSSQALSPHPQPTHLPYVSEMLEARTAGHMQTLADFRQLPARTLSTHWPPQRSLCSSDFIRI
Experiment: ELISA on coated His-tagged CD27; note: test concentration or dose not given here
attribute.measured: ELISA [abs. corr.] (abs. corr.)

>>> experimental_result("P018.S.09.A.H04 (antibody, V domains shown, V regions on human Ig constant parts; also called AB27_161) VH: QSVEESGGRLVTPGTPLTLTCTVSGFSLSSYVMSWVRQAPGKGLEWIGYSDYGGTAYYANWAKGRFTISKTSTTVELKITSPTIEDTATYFCARGGYDGYLLVTGLWGPGTLVTVSS VL: DIVMTQTPASVSEPVGGTVTIKCQASQSISSYLAWYQQKPGQPPKLLIYSASTLASGVSSRFKGSGSGTEYTLTISDLESADAATYYCQTYYGGGPFGNGFGGGTEVVVK")
3.36
>>> experimental_result("P018.S.03.A.D03 (antibody, V domains shown, V regions on human Ig constant parts; also called AB27_48) VH: QEQLVESGGGLVQPEGSLTLTCTASGFSFNNNYVMSWVRQAPGKGLEWIGTIYVVSGSTYYASWVNGRFSISKTSSTTVTLQMTSLTDADTATYFCARDQLYNSGYDFDLWGPGTLVIVSS VL: AQVLTQTASPVSAAVGSTVTISCQSSQSVYNNNELSWYQQKPGQPPKLLIYQASKLASGVSSRFSGSESGTQFTLTISGVQSDDAATYYCQGTYYRSGLDNGFGGGTEVVVK")
3.22
>>> experimental_result("P018.S.10.A.H01 (antibody, V domains shown, V regions on human Ig constant parts; also called AB27_184) VH: QEQLEESGGDLVKPGASLTLTCTASGFSFSSDYDMCWVSQAPGKGLEWIACIIGGSSDSTWYASWAKGRFTISKTSSTTVTLQVTGLTAADTATYFCARNVGFSYYDLWGPGTLVTVSS VL: AQVLTQTPSPVSAAVGGTVTINCQASQSLYNNKNLAWYQQKPGQPPKLLIYYASTLASGVSSRFKGSGSGTQFTLTISGVQSDDAATYYCQGEFSCSSGDCFAFGGGTEVVVK")
3.42
>>> experimental_result("P018.S.04.A.G04 (antibody, V domains shown, V regions on human Ig constant parts; also called AB27_78) VH: QSLEESGGRLVTPGTPLTLTCTASGFTISSHHVTWVRQAPGEGLEWIGVIYPSGTTYYASWAKGRFTISRTSTTVDLKMTSLTIEDTATYFCVRDVGYFTLWGQGTLVTVSS VL: AQVLTQTPSPVSAAVGGTVTISCQSSQSVGGNNWLAWYQQKLGQPPKLLIYYASTLASGVPPRFSGSGSGTQFTLTISEVQSDDSATYYCQGYYSDVTNAFGGGTEVVVK")
3.48
>>> experimental_result("P018.S.09.A.D02 (antibody, V domains shown, V regions on human Ig constant parts; also called AB27_150) VH: QSLEESGGRLVTPGTPLTLTCTASGFSLSKYDMGWFRQAPGKGLEWIGMIGASDRTYYASWVKGRFTISKTSTTVDLRITSPTTEDTATYFCAREYPDARGYYYNLWGPGTPVTVSS VL: ALVMTQTPASVEAAVGGTVTINCQASQSISDLLAWYQQKPGQPPKLLIYDASDLASGVPSRFSGSGSGTEFTLTISGVQSDDAATYYCQQGYSITNVDNVFGGGTEVVVK")
3.37
>>> experimental_result("P018.S.07.A.D03 (antibody, V domains shown, V regions on human Ig constant parts; also called AB27_122) VH: QEQLKESGGGLVTPGGTLTLTCTVSGFSLSGHDMGWVRQAPGKGLEWIGIIGSNSKTYYTNWAKGRFTISKTSTTVGLRITSPTTEDTATYFCTVVGPGVGGFYFDLWGQGTLVTVSS VL: DVVMTQTPASVSDPVGGTVTIRCQASQSIGSDLAWYQQKPGQPPKLLIYAASTLASGVPSRFSGSGSGTEYTLTISDLESADAATYYCQCTYVGSTYLGAFGGGTEVVVK")
3.34
>>> experimental_result("P018.S.07.A.B03 (antibody, V domains shown, V regions on human Ig constant parts; also called AB27_115) VH: QSVEESGGRLVTPGTPLTLTCTVSGFSLSSYAMGWVRQAPGKGLEWIGDIYGSGSTYYASWAKGRFTFSRTSTTVDLKMTSLTTEDTATYFCARSKGYNYNLWNLWGQGTLVTVSS VL: DIVMTQTPSSVSAAVGGTVTINCQASQNIYTNLAWYQQKPGQRPKLLIYDASDLASGVPSRFSGSGSGTEYTLTISDLESADAATYYCQTYSYSGSSSANPFGGGTEVVVK")
3.37
>>> experimental_result("P018.S.04.A.B05 (antibody, V domains shown, V regions on human Ig constant parts; also called AB27_68) VH: QSVEESGGRLVTPGTPLTLTCTASGFTLSSFYMSWVRQAPGKGLEWIGFIHGHGNTYYASWAKGRFTISKTSTTVDLKIASPTTEDTATYFCARGGHPNMDLWGQGTLVTISS VL: DIVMTQTPSSVEAAVGGTVTIKCQASQNINNYLAWYQQKPGQPPKLLIYYASTLASGVSSRFKGSGSGTEFTLTISDLESDDAATYYCQCSYYDASIFGAFGGGTEVVVR")
3.5
>>> experimental_result("P018.S.01.A.B05 (antibody, V domains shown, V regions on human Ig constant parts; also called AB27_6) VH: QEQLEESGGRLVTPGGTLTLTCTASGFSLSSYDMSWVRQAPGKGLEWIGYIWSDGNTDYATWAAGRFTASRASTTVDLKMTSLTTEDTATYFCARGYTGFFLWGPGTLVTVSS VL: DVVMTQTPSSVSAAVGGTVTIKCQASQSIGSSYLSWYQQKPGQPPKLLIYKTSTLASGVPSRFKGSGSGTEFTLTISDLESDDAATYYCQCTYYGSSWRVAFGGGTEVVVK")
3.5
>>> experimental_result("P018.S.03.A.F04 (antibody, V domains shown, V regions on human Ig constant parts; also called AB27_55) VH: QSVEESGGRLVTPGTPLTLTCTVSGFSLSSYAMGWVRQAPGKGLQWIGILYRNDAASYANWAKGRFTISKTSTTVDLTMPSLTTEDTATYFCVRGYVNDGYYNLWGQGTLVTVSS VL: AYDMTQTPASVEVAVGGTVTIKCQASESIGYRLAWYQQKPGQPPKLLIFDASDLASGVPSRFKGSGSGKHFTLTISGVQSADAATYYCQQDYSYSITDNCFGGGTEVVVS")
3.31
